Target: Protein cereblon/Wee1-like protein kinase (Homo sapiens, UniProt P30291+Q96SW2)
Experiment: PROTAC activity at CRBN/recombinant WEE1 (unknown origin) assessed as induction of WEE1 degradation by FRET based Lantha Screen assay
attribute measured: IC50 (nM)
Give the value, in units of nM, as a plain number.

Ask | Report IC50 for C=CCn1c(=O)c2cnc(Nc3ccc(N4CCN(CCCNc5cccc6c5C(=O)N(C5CCC(=O)NC5=O)C6=O)CC4)cc3)nc2n1-c1cccc(C(C)(C)O)n1 (stereo unspecified) please.
Reply | 3.58

###

Target: DNA-dependent protein kinase catalytic subunit (Homo sapiens)
Sequence (P78527 whole entry): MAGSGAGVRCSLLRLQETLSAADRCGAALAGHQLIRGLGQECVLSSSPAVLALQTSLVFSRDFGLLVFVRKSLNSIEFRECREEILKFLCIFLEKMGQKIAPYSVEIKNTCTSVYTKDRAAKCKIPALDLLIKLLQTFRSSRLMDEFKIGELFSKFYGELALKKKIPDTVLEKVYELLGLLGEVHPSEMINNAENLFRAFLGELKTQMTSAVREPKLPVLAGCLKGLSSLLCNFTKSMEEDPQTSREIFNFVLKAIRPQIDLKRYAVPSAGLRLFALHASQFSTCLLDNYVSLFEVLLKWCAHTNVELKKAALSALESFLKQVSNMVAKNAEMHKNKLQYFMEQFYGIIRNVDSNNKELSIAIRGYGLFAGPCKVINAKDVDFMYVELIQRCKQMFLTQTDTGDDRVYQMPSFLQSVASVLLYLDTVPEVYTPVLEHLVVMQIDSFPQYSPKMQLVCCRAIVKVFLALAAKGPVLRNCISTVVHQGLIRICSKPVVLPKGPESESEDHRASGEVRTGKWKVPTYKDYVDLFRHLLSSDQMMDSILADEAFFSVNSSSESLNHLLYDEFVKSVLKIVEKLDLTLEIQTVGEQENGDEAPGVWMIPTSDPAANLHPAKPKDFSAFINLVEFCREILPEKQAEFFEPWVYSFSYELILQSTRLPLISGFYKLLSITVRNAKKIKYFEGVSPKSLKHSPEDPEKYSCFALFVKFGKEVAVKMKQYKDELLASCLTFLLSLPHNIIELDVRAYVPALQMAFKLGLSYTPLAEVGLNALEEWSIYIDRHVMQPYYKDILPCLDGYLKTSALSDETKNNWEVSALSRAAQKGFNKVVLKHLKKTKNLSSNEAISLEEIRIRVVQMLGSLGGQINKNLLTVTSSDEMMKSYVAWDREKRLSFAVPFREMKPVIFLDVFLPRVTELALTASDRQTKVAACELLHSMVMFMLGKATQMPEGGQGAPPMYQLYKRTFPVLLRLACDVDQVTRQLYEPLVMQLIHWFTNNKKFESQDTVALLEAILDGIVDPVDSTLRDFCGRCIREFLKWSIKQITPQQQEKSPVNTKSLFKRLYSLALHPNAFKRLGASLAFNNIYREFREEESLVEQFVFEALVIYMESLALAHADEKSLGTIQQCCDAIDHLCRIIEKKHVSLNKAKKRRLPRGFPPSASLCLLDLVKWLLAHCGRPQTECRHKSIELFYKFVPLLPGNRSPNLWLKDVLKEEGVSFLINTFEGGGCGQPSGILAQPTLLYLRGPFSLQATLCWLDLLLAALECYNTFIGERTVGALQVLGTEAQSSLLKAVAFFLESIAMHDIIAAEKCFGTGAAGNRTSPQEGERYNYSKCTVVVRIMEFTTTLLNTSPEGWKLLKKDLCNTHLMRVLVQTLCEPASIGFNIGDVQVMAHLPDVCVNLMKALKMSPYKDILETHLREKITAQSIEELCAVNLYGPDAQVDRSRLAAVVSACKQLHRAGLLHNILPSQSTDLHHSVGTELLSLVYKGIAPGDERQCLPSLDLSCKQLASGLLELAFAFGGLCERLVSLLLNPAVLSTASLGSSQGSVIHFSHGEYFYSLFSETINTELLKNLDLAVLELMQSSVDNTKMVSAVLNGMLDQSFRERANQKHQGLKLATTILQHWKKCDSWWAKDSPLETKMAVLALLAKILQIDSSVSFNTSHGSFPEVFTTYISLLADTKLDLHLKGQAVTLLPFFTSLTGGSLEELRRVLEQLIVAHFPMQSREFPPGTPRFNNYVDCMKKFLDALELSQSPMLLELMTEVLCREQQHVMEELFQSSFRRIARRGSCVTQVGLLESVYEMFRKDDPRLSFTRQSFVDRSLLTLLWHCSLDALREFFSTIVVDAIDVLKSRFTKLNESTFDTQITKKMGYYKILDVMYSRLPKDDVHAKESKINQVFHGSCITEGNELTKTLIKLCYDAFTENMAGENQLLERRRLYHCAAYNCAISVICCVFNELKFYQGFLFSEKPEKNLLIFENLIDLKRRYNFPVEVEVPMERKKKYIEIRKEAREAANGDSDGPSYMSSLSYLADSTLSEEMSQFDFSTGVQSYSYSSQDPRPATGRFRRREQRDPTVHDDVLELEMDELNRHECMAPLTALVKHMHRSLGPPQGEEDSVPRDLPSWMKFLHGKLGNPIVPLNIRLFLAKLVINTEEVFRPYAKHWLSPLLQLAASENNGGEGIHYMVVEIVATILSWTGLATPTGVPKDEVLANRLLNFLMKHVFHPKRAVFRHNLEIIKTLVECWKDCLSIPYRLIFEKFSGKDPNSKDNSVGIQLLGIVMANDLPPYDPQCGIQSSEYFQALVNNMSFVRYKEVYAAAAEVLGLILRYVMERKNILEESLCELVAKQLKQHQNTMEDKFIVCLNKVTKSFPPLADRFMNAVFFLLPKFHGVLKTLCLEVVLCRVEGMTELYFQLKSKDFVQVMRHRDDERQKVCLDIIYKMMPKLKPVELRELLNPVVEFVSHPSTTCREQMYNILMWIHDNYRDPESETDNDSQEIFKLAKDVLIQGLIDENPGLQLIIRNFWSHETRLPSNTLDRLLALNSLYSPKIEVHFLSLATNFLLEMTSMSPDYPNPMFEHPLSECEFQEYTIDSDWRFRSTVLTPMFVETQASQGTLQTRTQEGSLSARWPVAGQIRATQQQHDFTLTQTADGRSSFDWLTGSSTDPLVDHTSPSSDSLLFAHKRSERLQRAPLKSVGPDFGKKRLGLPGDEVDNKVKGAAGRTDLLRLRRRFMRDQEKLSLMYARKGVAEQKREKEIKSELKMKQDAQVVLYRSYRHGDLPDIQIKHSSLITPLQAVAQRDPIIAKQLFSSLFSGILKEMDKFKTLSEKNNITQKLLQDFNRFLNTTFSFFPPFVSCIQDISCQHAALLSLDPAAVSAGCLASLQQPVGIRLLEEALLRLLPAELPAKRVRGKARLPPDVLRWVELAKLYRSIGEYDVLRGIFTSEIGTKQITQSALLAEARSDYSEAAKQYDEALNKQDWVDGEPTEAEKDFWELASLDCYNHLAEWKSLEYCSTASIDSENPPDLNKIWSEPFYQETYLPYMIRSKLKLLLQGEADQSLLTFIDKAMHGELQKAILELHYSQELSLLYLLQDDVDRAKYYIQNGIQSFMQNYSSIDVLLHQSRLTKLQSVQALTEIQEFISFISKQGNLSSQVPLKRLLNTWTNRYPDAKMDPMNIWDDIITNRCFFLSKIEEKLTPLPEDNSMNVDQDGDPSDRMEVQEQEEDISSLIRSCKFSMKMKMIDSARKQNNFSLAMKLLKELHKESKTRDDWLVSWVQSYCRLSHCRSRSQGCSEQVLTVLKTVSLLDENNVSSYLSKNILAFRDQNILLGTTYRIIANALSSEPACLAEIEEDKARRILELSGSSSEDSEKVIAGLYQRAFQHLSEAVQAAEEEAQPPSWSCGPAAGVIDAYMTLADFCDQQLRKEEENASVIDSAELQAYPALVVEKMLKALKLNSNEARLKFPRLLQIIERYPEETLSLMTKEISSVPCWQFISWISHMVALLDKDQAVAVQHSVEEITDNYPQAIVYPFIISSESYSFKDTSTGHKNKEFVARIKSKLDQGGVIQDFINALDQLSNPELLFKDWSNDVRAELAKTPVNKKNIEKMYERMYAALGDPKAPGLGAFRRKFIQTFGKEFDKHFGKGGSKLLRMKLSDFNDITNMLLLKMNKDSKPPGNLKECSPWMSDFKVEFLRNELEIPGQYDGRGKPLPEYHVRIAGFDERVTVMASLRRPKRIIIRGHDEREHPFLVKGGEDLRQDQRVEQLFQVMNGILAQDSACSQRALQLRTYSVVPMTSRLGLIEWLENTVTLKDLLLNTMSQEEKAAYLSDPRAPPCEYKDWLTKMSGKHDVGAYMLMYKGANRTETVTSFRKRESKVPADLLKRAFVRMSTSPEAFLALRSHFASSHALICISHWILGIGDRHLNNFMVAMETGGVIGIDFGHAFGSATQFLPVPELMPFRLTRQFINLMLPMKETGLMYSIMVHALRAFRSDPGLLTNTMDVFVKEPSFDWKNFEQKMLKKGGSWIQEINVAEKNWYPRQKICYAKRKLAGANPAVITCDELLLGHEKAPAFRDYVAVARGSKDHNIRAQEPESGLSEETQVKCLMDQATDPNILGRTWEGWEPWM
Test: Inhibition of DNA-PK (unknown origin) assessed as inhibition constant using Glu-Pro-Pro-Leu-Ser-Gln-Glu-Ala-Phe-Ala-Asp-Leu-Trp-Lys-Lys-Lys peptide as substrate incubated for 45 mins in presence of [33P]-ATP by scintillation counting method
For each entry below, report its Ki value.

Ask | Report Ki for O=c1[nH]c(N[C@H]2CC[C@@H](Oc3cc(N4CCOCC4)cc4nccnc34)CC2)ncc1F please.
Reply | < 100 nM

Ask | Report Ki for C[C@@H]1CN(c2cc(O[C@H]3CC[C@@H](Nc4ncccn4)CC3)c3nccnc3c2)CCO1 please.
Reply | < 100 nM

###

Assay: Half life in BALB/c mouse at 2 mg/kg, po by LC-MS/MS analysis
Assay type: ADME, organism-based
Details: in vivo
attribute measured: half-life (h)
Give the value, in units of h, as a plain number.

Ask | Report half-life for Cc1cc2ncnn2cc1Nc1ncc2c(n1)n(N1CC3CCC(C1)O3)c(=O)n2C please.
Reply | 3.85

###

For each entry below, report its bioavailability value.
Experiment: Oral bioavailability in BALB/c mouse at 2 mg/kg by LC-MS/MS analysis
Assay type: ADME, organism-based
Settings: in vivo

Ask | Report bioavailability for Cc1cc2ncnn2cc1Nc1ncc2c(n1)n(N1CC3CCC(C1)O3)c(=O)n2C please.
Reply | 44.5%

Ask | Report bioavailability for Cc1cc2ncnn2cc1Nc1ncc2c(n1)n(N1CCOCC1)c(=O)n2C please.
Reply | 96.4%

Ask | Report bioavailability for Cc1cc2ncnn2cc1Nc1ncc2c(n1)C1(CCC3(CC3)CC1)C(=O)N2C please.
Reply | 83%

Ask | Report bioavailability for Cc1cc2ncnn2cc1Nc1ncc2c(n1)C1(CCC(C)(C)CC1)C(=O)N2C please.
Reply | 114%

###

Test: AUC in overnight fasted Sprague-Dawley rat at 2 mg/kg, po via gavage measured for 0.25 to 24 hrs by LC/MS/MS analysis
Type: ADME, organism-based
Parameters: time 0.25-24 hrs, dose 2 mg/kg, route po
Conditions: in vivo
attribute measured: AUC
Give me the value, and tack the unit on after it.

Ask | Report AUC for C[C@@H]1COCCN1c1nc(-c2ccnn2C)c2c(n1)c(-c1ccn[nH]1)nn2C please.
Reply | 2710 ng·h/mL

###

Test: AUC (0 to last) in mouse at 0.4 mg/kg, iv
Type: ADME, organism-based
Design: time 0 - last, dose 0.4 mg/kg, route iv
Conditions: in vivo
attribute measured: AUC(0-t) (ng·h/mL)
Give the value, in units of ng·h/mL, as a plain number.

Ask | Report AUC(0-t) for COc1ccc(C2(c3cc(-c4ncnc5cc(N6CCOCC6)ccc45)c(F)cc3Cl)CC2)nn1 please.
Reply | 2260

###

For each entry below, report its pIC50 value.
Biological target: ATR/ATRIP (Homo sapiens, UniProt Q13535)
Test: Inhibition of full-length human recombinant FLAG-tagged ATR/c-Myc-tagged ATRIP using p53 as substrate incubated for 30 mins in presence of ATP by fluorescence based assay
Type: protein-complex assay
In plain terms, pIC50 is the concentration in mol/L turned into minus its base-10 logarithm.

Ask | Report pIC50 for Cc1ccc(-c2cc(N3CCOC[C@H]3C)nn3c(-c4ccn[nH]4)cnc23)cn1 please.
Reply | 6.42

Ask | Report pIC50 for C[C@@H]1COCCN1c1cc(-c2ccnn2C)c2ncc(-c3ccn[nH]3)n2n1 please.
Reply | 6.03

###

Experiment: Cmax in overnight fasted Sprague-Dawley rat at 2 mg/kg, po via gavage measured for 0.25 to 24 hrs by LC/MS/MS analysis
Type: ADME, organism-based
Design: dose 2 mg/kg, time upper 24 hrs, time lower 0.25 hrs, route po
Settings: in vivo
attribute measured: Cmax (ng/mL)
Give the value, in units of ng/mL, as a plain number.

Ask | Report Cmax for C[C@@H]1COCCN1c1nc(-c2ccnn2C)c2c(n1)c(-c1ccn[nH]1)nn2C please.
Reply | 674

###

Assay: Oral bioavailability in ICR mouse at 10 mg/kg measured for 5 to 1440 mins
Assay type: ADME, organism-based
Conditions: in vivo, time 5-1440 min
For each entry below, report its bioavailability value.
Give the value, in units of %, as a plain number.

Ask | Report bioavailability for C=CCn1c(=O)c2cnc(Nc3ccc(N4C[C@H]5CN(C)C[C@H]5C4)cc3)nc2n1-c1ccc(C(C)(C)O)cn1 please.
Reply | 64.3

Ask | Report bioavailability for C=CCn1c(=O)c2cnc(Nc3ccc(N4C[C@H]5CN(CC6CC6)C[C@H]5C4)cc3)nc2n1-c1ccc(C(C)(C)O)cn1 please.
Reply | 63.7

###

Test: Tmax in BALB/c mouse at 2 mg/kg, po by LC-MS/MS analysis
Format: ADME, organism-based
Conditions: in vivo
attribute measured: Tmax (min)
Give the value, in units of min, as a plain number.

Ask | Report Tmax for Cc1cc2ncnn2cc1Nc1ncc2c(n1)n(N1CC3CCC(C1)O3)c(=O)n2C please.
Reply | 15

###

Biological target: Poly [ADP-ribose] polymerase 1 (Homo sapiens, UniProt P09874)
Test: Inhibition of N-terminal GST-tagged recombinant human PARP1 (2 to 1014 residues) expressed in Sf9 insect cells incubated for 1 hr by colorimetric assay
attribute measured: IC50

Ask | Report IC50 for NC(=O)c1cccc2cn(-c3ccc([C@@]4(F)CCCNC4)cc3)nc12 please.
Reply | < 100 nM

Ask | Report IC50 for NC(=O)c1cccc2cn(-c3ccc([C@]4(F)CCCNC4)cc3)nc12 please.
Reply | < 100 nM

###

Molecular target: ATR/ATRIP (Homo sapiens, UniProt Q13535)
Assay: Inhibition of human FLAG-tagged ATR/c-Myc-tagged ATRIP expressed in mammalian expression system using p53 as substrate incubated for 2 hrs by fluorescence based assay
attribute measured: pIC50
In plain terms, pIC50 is the concentration in mol/L turned into minus its base-10 logarithm.

Ask | Report pIC50 for C[C@@H]1COCCN1c1nc(-c2ccnn2C)c2c(n1)c(-c1ccn[nH]1)nn2C please.
Reply | 7.82

Ask | Report pIC50 for C[C@@H]1COC[C@H]2COc3c(nc(-c4ccnc5[nH]ccc45)nc3C3(C#N)CC3)N21 please.
Reply | 8.00

Ask | Report pIC50 for C[C@@H]1COC[C@H]2COc3c(nc(-c4ccnc5[nH]ccc45)nc3C3(S(C)(=N)=O)CC3)N21 (some centres undefined) please.
Reply | 8.40

Ask | Report pIC50 for C[C@@H]1COCCN1c1nc(C(C)(C)C#N)c2[nH]nc(-c3ccn[nH]3)c2n1 please.
Reply | 8.52

###

Biological target: UniProt Q13315
Assay: Inhibition of ATM in human MCF7 cells […] incubated for 1 hr by Cell Western assay
Format: cell-based
For each entry below, report its IC50 value.
Give the value, in units of nM, as a plain number.

Ask | Report IC50 for CCc1ncc(S(=O)(=O)Nc2cc(-c3ccc4ncc5c(c4c3)C3(CCC3)C(=O)N5C)cnc2OCCCN(C)C)s1 please.
Reply | 1

Ask | Report IC50 for CN(C)CCCOc1ncc(-c2ccc3ncc4c(c3c2)C2(CCC2)C(=O)N4C)cc1NS(=O)(=O)C(F)(F)F please.
Reply | 1

###

Biological target: Wee1-like protein kinase (Homo sapiens)
Sequence (P30291 whole entry, the tested form may be a part): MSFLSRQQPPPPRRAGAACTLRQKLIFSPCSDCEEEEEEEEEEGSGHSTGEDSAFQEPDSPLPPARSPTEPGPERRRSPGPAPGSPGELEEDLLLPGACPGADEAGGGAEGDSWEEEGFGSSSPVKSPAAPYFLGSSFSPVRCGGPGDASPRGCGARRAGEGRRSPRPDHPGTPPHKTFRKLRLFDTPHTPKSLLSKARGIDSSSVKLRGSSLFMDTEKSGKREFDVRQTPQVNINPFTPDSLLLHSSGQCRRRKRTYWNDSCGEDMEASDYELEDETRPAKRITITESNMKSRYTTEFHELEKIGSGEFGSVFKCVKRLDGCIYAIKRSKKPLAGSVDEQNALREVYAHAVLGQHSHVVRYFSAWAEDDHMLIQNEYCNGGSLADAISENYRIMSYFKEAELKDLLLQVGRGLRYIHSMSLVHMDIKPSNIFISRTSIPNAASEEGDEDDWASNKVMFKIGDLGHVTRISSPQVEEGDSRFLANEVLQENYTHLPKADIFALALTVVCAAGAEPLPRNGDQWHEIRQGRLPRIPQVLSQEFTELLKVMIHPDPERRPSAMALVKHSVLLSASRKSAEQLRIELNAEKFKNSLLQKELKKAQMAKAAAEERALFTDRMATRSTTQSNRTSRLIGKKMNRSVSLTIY
Experiment: Displacement of tracer 178 from N-terminal GST-fused human WEE1 (215 to 646 residues) expressed in baculovirus expression system preincubated for 5 mins followed by tracer addition measured after 60 mins by Lantha Screen EU assay
attribute measured: pIC50
In plain terms, pIC50 is the concentration in mol/L turned into minus its base-10 logarithm.

Ask | Report pIC50 for CN1CCC2(CC1)CCN(c1ccc(Nc3ncc4cc(C5CC5)n(-c5cccc(C(C)(C)O)n5)c4n3)cc1)CC2 please.
Reply | 8.99

###

Test: AUC (0 to last) in ICR mouse at 3 mg/kg, iv measured for 2 to 1440 mins
Assay type: ADME, organism-based
Parameters: time 2-1440 min, dose 3 mg/kg, route iv
Settings: in vivo
attribute measured: AUC(0-t) (µg·h/mL)
Give the value, in units of µg·h/mL, as a plain number.

Ask | Report AUC(0-t) for C=CCn1c(=O)c2cnc(Nc3ccc(N4C[C@H]5CN(C)C[C@H]5C4)cc3)nc2n1-c1ccc(C(C)(C)O)cn1 please.
Reply | 0.191

Ask | Report AUC(0-t) for C=CCn1c(=O)c2cnc(Nc3ccc(N4C[C@H]5CN(CC6CC6)C[C@H]5C4)cc3)nc2n1-c1ccc(C(C)(C)O)cn1 please.
Reply | 0.153
